# System Tested: hGIPR (Homo sapiens, UniProt P48546)
# Sequence (P48546 22-466): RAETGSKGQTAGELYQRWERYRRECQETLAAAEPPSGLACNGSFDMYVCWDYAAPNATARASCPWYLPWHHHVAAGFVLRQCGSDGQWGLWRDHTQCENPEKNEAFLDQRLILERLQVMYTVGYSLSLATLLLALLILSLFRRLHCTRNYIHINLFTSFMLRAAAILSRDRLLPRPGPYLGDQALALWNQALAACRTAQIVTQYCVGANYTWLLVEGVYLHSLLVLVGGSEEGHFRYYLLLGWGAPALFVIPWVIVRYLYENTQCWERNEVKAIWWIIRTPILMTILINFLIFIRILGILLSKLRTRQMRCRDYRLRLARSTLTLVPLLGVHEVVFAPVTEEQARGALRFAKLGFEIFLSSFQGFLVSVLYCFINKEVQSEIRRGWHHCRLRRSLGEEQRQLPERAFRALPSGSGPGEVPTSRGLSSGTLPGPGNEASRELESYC
# Method Summary: Functional cAMP activity in the presence of 1% HSA
# Assay type: cell-based
# Details: read-out: cAMP Rel EC50, hGIPR
Starred links: 1 amine or outer side, 2 acyl side, 3 side chain; linkers in the order of their positions; H or OH if unused. Non-standard residues stand in square brackets, D forms with d. Groups on a side chain read outwards from the residue. *: point of attachment. C20 diacid = O=C(O)CCCCCCCCCCCCCCCCCCC(=O)*; C18 diacid = O=C(O)CCCCCCCCCCCCCCCCC(=O)*; αMePhe(2-F) = C[C@](N)(Cc1ccccc1F)C(=O)O; γGlu = O=C(O)[C@H](CCC(=O)[*:2])N[*:1]; αMe4Pal = C[C@](N)(Cc1ccncc1)C(=O)O; αMeY = C[C@](N)(Cc1ccc(O)cc1)C(=O)O; 4Pal = N[C@@H](Cc1ccncc1)C(=O)O; αMeL = CC(C)C[C@](C)(N)C(=O)O; αMeS = C[C@](N)(CO)C(=O)O; Orn = NCCC[C@H](N)C(=O)O; AEEA = NCCOCCOCC(=O)O; Aib = CC(C)(N)C(=O)O
Mark TRUE only when EC50 stays strictly below 20 nM. Values equal to the cut-off are FALSE.

Substance | System Tested | Label
H-Y[Aib]QGT[αMePhe(2-F)]TSD[4Pal][αMeS]I[αMeL]LD[Orn]K([γGlu-γGlu-C18 diacid])AQ[Aib][Orn]FI[dE][αMeY]LAEGGPSSGEPPPSGGEE-NH2 [Example 590] | hGIPR (Homo sapiens, UniProt P48546) | TRUE
H-Y[Aib]QGTFTSDYSI[αMeL]LD[Orn]QAAK([AEEA-AEEA-γGlu-C20 diacid])QFVEWLLA[Aib]GPSSGEPPPSEG-NH2 [Example 328] | hGIPR (Homo sapiens, UniProt P48546) | FALSE
H-Y[Aib]QGTFTSD[4Pal]SQ[αMeL]LDKK([AEEA-γGlu-C18 diacid])AQ[αMe4Pal]AFIEYLIE[Aib]GPSSGAPPPSGT-NH2 [Example 834] | hGIPR (Homo sapiens, UniProt P48546) | TRUE
H-Y[Aib]QGTFTSD[4Pal]SQ[αMeL]LD[Orn]K([γGlu-γGlu-C18 diacid])AQ[αMe4Pal]AFIEYLIAGGPSSGEPPPSGS-NH2 [Example 1007] | hGIPR (Homo sapiens, UniProt P48546) | TRUE

We now examine a further substance.
Field: below-cutoff. Rule: recorded EC50 strictly less than 20 nM. Subject: H-Y[Aib]QGT[αMePhe(2-F)]TSD[4Pal][αMeS]I[αMeL]LD[Orn]K([γGlu-γGlu-C18 diacid])AQ[Aib][Orn]FI[dE][αMeY]LQEGGPSSGEPPPSGTEE-NH2 [Example 572]
TRUE
